Reported pKd is given for each of the following molecules.
Target: BRD4-BD1 (Homo sapiens (Human), UniProt O60885)
Test: bromoKdELECT assay for binding affinity to BRD4-BD1
Conditions: 11-point 3-fold dilution
pKd: −log10 of the molar value.

[
  {
    "molecule": "CCS(=O)(=O)c1ccc(Oc2cccc(CCCOC3CC4(C3)CN(c3ccc(C(=O)N[C@H]5CC[C@H](Oc6ccc(C#N)c(Cl)c6)CC5)nn3)C4)c2F)c(-c2cn(C)c(=O)c3[nH]ccc23)c1",
    "target.or.system": "BRD4-BD1 (Homo sapiens (Human), UniProt O60885)",
    "result": "5.60 to 6.30"
  },
  {
    "molecule": "Cn1cc(-c2cc(C(C)(C)O)ccc2Oc2ccc(OC3CN(c4ccc(C(=O)N[C@H]5CC[C@H](Oc6ccc(C#N)c(Cl)c6)CC5)nn4)C3)cc2)c2cc[nH]c2c1=O",
    "target.or.system": "BRD4-BD1 (Homo sapiens (Human), UniProt O60885)",
    "result": "5.60 to 6.30"
  },
  {
    "molecule": "Cn1cc(-c2cc(C(C)(C)O)ccc2Oc2c(F)cc(CCOC3CCN(c4ccc(C(=O)N[C@H]5CC[C@H](Oc6ccc(C#N)c(Cl)c6)CC5)nn4)CC3)cc2F)c2cc[nH]c2c1=O",
    "target.or.system": "BRD4-BD1 (Homo sapiens (Human), UniProt O60885)",
    "result": "5.60 to 6.30"
  },
  {
    "molecule": "Cn1cc(-c2cc(C(C)(C)O)ccc2Oc2ccc(CCC3CCN(c4ccc(C(=O)N[C@H]5CC[C@H](Oc6ccc(C#N)c(Cl)c6)CC5)nn4)CC3)cc2F)c2cc[nH]c2c1=O",
    "target.or.system": "BRD4-BD1 (Homo sapiens (Human), UniProt O60885)",
    "result": "< 5.60"
  },
  {
    "molecule": "CCS(=O)(=O)c1ccc(Oc2cc(F)c(CCC3CCN(c4ccc(C(=O)N[C@H]5CC[C@H](Oc6ccc(C#N)c(Cl)c6)CC5)nn4)CC3)cc2F)c(-c2cn(C)c(=O)c3[nH]ccc23)c1",
    "target.or.system": "BRD4-BD1 (Homo sapiens (Human), UniProt O60885)",
    "result": "5.60 to 6.30"
  }
]

Here's the next entry for you.
Q) // returns reported pKd for input CCS(=O)(=O)c1ccc(Oc2ccc(N3CC4(CCN(c5ccc(C(=O)NC6CCC(Oc7ccc(C#N)c(Cl)c7)CC6)nn5)CC4)C3)cc2)c(-c2cn(C)c(=O)c3[nH]ccc23)c1 (stereo not drawn)
A) 6.30 to 7.30
